assay.method.text: fission yeast growth modulation, primary screen, strain 972, OD600, 24 h, no modulator (AID 1090);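 further: basal condition with compound alone and no growth modifier present; test concentration not given here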
test.context: S. pombe 972 growth, higher = more signal, called active from +8 up or from −8 down
Quick rule: z-score of at least 0.5 means true, below that means false.

# compound, label
measured = [
    ("CCOC(=O)C1=C[C@@H](c2ccccc2)N(S(=O)(=O)c2ccc(C)cc2)[C@H]1c1ccccc1", "true"),
    ("COCCOC(=O)N1C(=O)[C@@]2(c3cc(C#CCCO)ccc31)[C@H](C(N)=O)[C@H]1C(=O)O[C@H](c3ccccc3)[C@H](c3ccccc3)N1[C@@H]2c1ccc(OCCO)cc1", "true"),
    ("CCCCCCCCCCC(O)C1C=CC2C(=O)N(c3ccccc3)C(=O)C2N1Nc1ccccc1F (configuration not stated)", "true"),
    ("C=C(/C(=C/C[C@H](OC(=O)c1ccncc1)c1ccccc1OCCO)c1cnc2ccccc2c1)C(C)C", "false"),
    ("C=CCN1C(=O)[C@]2(O[C@H](CCO)[C@@H]([Si](C)(C)c3ccc(OC)cc3)[C@@H]2C)c2cc(NC(=O)c3ccc(OC)cc3)ccc21", "false"),
    ("[N-]=[N+]=NCc1ccccc1[C@@H]1OC(c2ccc(OCCCO)cc2)=N[C@]1(Cc1ccccc1N=[N+]=[N-])C(=O)NCCN1CCOCC1", "false"),
    ("CC(C)[Si]1(C(C)C)OCc2cc(-c3ccc(-c4ccc(Cl)c(Cl)c4)o3)nc(CCc3ccccc3)c21", "false"),
]

* * *

assay.method.text: P. aeruginosa biofilm formation inhibitors, primary screen, strain PAO1, LB-PBS medium, absorbance 600 nm (AID 1176); further: test concentration not given here
test.context: P. aeruginosa PAO1 growth/biofilm, A600, 12 h; higher = more signal
Mark T for reported z-score of 0.6 or greater; mark F for anything smaller.

# compound, label
measured = [
    ("COc1cc(CO)cc(I)c1O[C@H]1C=C(C(=O)NCCO)C[C@@H](NCC2CCCCC2)[C@@H]1O", "F"),
    ("CCOC(=O)C1=CCC(c2ccco2)N(S(=O)(=O)c2ccc(C)cc2)C1 (stereo not given)", "F"),
    ("COC(=O)C(CC#Cc1ccc2c(c1)[C@]1(C(=O)N2)[C@H](c2ccc(OCCO)cc2)N2[C@H](c3ccccc3)[C@H](c3ccccc3)OC(=O)[C@H]2[C@@H]1C(=O)N1CCN(c2ncccn2)CC1)C(=O)OC", "T"),
    ("C=C(/C(=C/C[C@@H](OC(=O)c1ccncc1)c1cccc(OCCO)c1)c1cnc2ccccc2c1)C(C)C", "T"),
    ("COc1ccc(C(=O)Nc2cccc(CN3C(=O)[C@]4(O[C@H](CCn5cc([C@H](O)c6ccccc6)nn5)[C@@H]([Si](C)(C)c5ccc(OC)cc5)[C@@H]4C)c4ccccc43)c2)cc1", "T"),
    ("COCC(=C=CC[C@@H](O)c1ccc(OCCO)cc1)CCO", "F"),
    ("C=C(COC)/C(=C/C[C@@H](OC(C)=O)c1ccc(CO)o1)c1cc(C(=O)OC)ccc1OC", "T"),
    ("O=C(CS)NCCCCCNC(=O)[C@@H]1C[C@@H]2C(=O)N[C@@H](Cc3ccccc3)C(=O)N2[C@@H]1c1cccc(OCCO)c1", "F"),
    ("CC(C)c1ccc(NN2C(C(O)Cc3ccccc3)C=CC3C(=O)N(c4ccccc4)C(=O)C32)cc1 (stereo not given)", "T"),
    ("COc1ccc([Si](C)(C)[C@H]2[C@H](CC(=O)N3Cc4ccccc4C[C@H]3CO)O[C@@]3(C(=O)N(Cc4ccc(N5C(=O)c6cccc7cccc5c67)cc4)c4ccccc43)[C@@H]2C)cc1", "T"),
    ("CC(C)C(=C=CC[C@@H](O)c1cccc(OCCO)c1)C[C@@H](O)COCc1ccccc1", "F"),
    ("O=C1N(CCS(=O)(=O)c2ccccc2)Cc2ccccc2[C@@H]2OC(c3ccc(OCCCO)cc3)=N[C@]12CCS(=O)(=O)c1ccccc1", "T"),
    ("CC(CO)N1C(=O)[C@@H]2[C@H]3C(=O)OCC=C[C@H]3OC23C=CCN(c2ccc(Cl)cc2)C(=O)[C@@H]13 (stereo not given in full)", "F"),
    ("CC(C)=CCCC(C)=CC(O)C1C=CC2C(=O)N(c3ccccc3)C(=O)C2N1Nc1ccccc1F (stereo not given)", "F"),
    ("CCOC(=O)C1=C[C@@H](C(C)(C)C)N(S(=O)(=O)c2ccc(C)cc2)[C@H]1c1cccc(Cl)c1", "F"),
    ("COc1ccc([Si](C)(C)[C@@H]2[C@@H](CC(=O)N3Cc4ccccc4C[C@H]3CO)O[C@]3(C(=O)N(c4ccccc4)c4ccccc43)[C@H]2C)cc1", "T"),
    ("COc1ccc(C(O)C2C=CC3C(=O)N(c4ccccc4)C(=O)C3N2Nc2ccccc2F)cc1 (stereo not given)", "T"),
    ("COC(=O)[C@@]1(Cc2ccc(F)cc2)[C@H]2c3cc(C(=O)N4CCCC4)n(CC4CC4)c3C[C@H]2CN1C(=O)c1ccccc1", "F"),
    ("C=CCC(OC(C)=O)[C@@H]1[C@@H](N(Cc2cccc3ccccc23)C(=O)c2ccc(-c3ccccc3)cc2)c2cc(OCCCO)ccc2N1C(=O)c1ccc(-c2ccccc2)cc1 (stereo not given in full)", "F"),
    ("CC(C)[Si]1(C(C)C)OCc2cc(-c3ccc(-c4ccc(Cl)c(Cl)c4)o3)nc(CCc3ccccc3)c21", "F"),
]
